Reference source for all entries: the supplement of paper PMC9112550

# Tested on: Escherichia coli TOP10;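 note: peptides expressed intracellularly from a pBAD plasmid library in pooled LB shake-flask culture, induced with 0.3% L-arabinose, DNA abundance read by NGS, three biological replicates, DESeq2 with apeglm shrinkage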
# assayInfo: shrunken log2 fold change of peptide-encoding DNA abundance (4.5 h post-induction vs induction); higher = less antimicrobial activity (less host growth inhibition)
# testConditions: time post-induction: 4.5 h; library: site-saturation at positions 5, 18, 19, 20
Exercise: state measured shrunken log2 fold change for each of the sequences provided.
The response must contain the number and no unit.

# return recorded shrunken log2 fold change for input RRIRKRPPRLPRPRPRPVPYPRP -0.0558

Report shrunken log2 fold change, nothing else, for this sequence: RRIRERPPRLPRPRPRPIASPRP 0.129

Entry RRIRPRPPRLPRPRPRPMFAPRP needs its shrunken log2 fold change filled in; supply it. -0.0605

Return reported shrunken log2 fold change. Input sequence: RRIRERPPRLPRPRPRPHMYPRP -0.577

Read the entry RRIRCRPPRLPRPRPRPHNMPRP and write its reported shrunken log2 fold change. -0.82

Identify the reported shrunken log2 fold change for the following entry. RRIRVRPPRLPRPRPRPTAPPRP 0.175

Please give the documented shrunken log2 fold change of RRIRQRPPRLPRPRPRPVGAPRP 0.489

Input RRIRIRPPRLPRPRPRPTAGPRP , output reported shrunken log2 fold change. -0.167

# return recorded shrunken log2 fold change for input RRIRGRPPRLPRPRPRPKSFPRP 0.0944

Name the recorded shrunken log2 fold change of the sequence listed here: RRIRHRPPRLPRPRPRPCFGPRP 0.104

Give the measured shrunken log2 fold change for RRIRQRPPRLPRPRPRPKSQPRP 0.32

Report shrunken log2 fold change, nothing else, for this sequence: RRIRKRPPRLPRPRPRPRCCPRP 0.491

Let me know recorded shrunken log2 fold change for RRIRARPPRLPRPRPRPPTPPRP , thanks. 1.33

Kindly indicate its recorded shrunken log2 fold change. Item: RRIRNRPPRLPRPRPRPCVDPRP 0.037

Complete the entry with shrunken log2 fold change for RRIRHRPPRLPRPRPRPCHDPRP 0.0948
